Sourced from ChEMBL document CHEMBL3433997

target_or_system: Hexose transporter 1 (Plasmodium falciparum)
procedure_summary: ST_JUDE_LEISH: Cytotoxicity at 2uM final concentration against transgenic Leishmania Mexicana promastigotes LmPfHT that are glucose transport deficient and complemented with the Plasmodium falciparum hexose transporter. Activity is measured by DNA content using SYBR green in vitro
Assay type: functional
Each entry below lists one item and its recorded inhibition value.
Write the value in % as a bare number.

Before answering, review these 2 worked examples.
compound	unit_of_measurement	value_measured
CNC(=O)c1cnc(Nc2ccc3[nH]c(=O)[nH]c3c2)nc1Nc1cccc(OC(C)C)c1	%	-0.76
OCCNc1nc(Nc2ccccc2)nc2ccccc12	%	7.01

Query: For the compound O=C(NC1CC1)c1cnc(N2CCN(Cc3ccc(Cl)cc3)CC2)c(Cl)c1 , report inhibition.
Result: 1.16

Query: For the compound O=[N+]([O-])c1ccc2ncnc(Nc3ccc(F)c(Cl)c3)c2c1 , report inhibition.
Result: 0.68

Query: For the compound Cc1nc(-c2cccc(Nc3ccnc4cc(-c5nccs5)ccc34)c2)no1 , report inhibition.
Result: 2.43

Query: For the compound Cc1cc(N2CC=CCC2)nc(NC(=N)Nc2ccc(Cl)cc2)n1 , report inhibition.
Result: 7.74

====

target_or_system: Solute carrier family 2, facilitated glucose transporter member 1 (Homo sapiens)
procedure_summary: ST_JUDE_LEISH: Cytotoxicity at 2uM final concentration against transgenic Leishmania Mexicana promastigotes LmGLUT1 that are glucose transport deficient and complemented with the human glucose transporter GLUT1. Activity is measured by DNA content using SYBR green in vitro
Type: functional
test_readout: inhibition (%)
Write the value in % as a bare number.

compound	test_readout	unit_of_measurement	value_measured
CC1=C(C(=O)Nc2cc3cn[nH]c3cc2F)C(c2cccc(O)c2F)CC(=O)N1 (stereo not given)	inhibition	%	-2.25
Cc1cc(-c2ccc(CNC3CCN(C)CC3)cc2)ccc1S(=O)(=O)NCc1ccccc1	inhibition	%	3.29
COc1cccc2cc(C(=O)N[C@@H](CC(C)C)C(=O)N[C@H](/C=N/N(C)C(=O)OC(C)(C)C)CC(=O)OC(C)(C)C)oc12	inhibition	%	2.84

Query: For the compound CC(C)(C)c1ccc(CN2CCC(CNC(=O)c3cc(-c4ccccc4F)cs3)C2)cc1 (stereo not given) , report inhibition.
Result: -1.08

Query: For the compound COc1ccc(C(=O)N2CCc3cc4nccc(N5CCN6CCC[C@H]6C5)c4cc32)cc1 , report inhibition.
Result: 2.59

Query: For the compound O=C(Nc1cccc(CN2CCCN(CC3CCCCC3)CC2)c1)c1ccc(Cl)c(Cl)c1 , report inhibition.
Result: 12.1

====

target_or_system: Glucose transporter (Leishmania mexicana)
procedure_summary: ST_JUDE_LEISH: Cytotoxicity at 2uM final concentration against transgenic Leishmania Mexicana promastigotes LmGT2 that are glucose transport deficient and complemented with the L. Mexicana glucose transporter 2. Activity is measured by DNA content using SYBR green in vitro
Type: functional
Each entry below lists one item and its recorded inhibition value.
Write the value in % as a bare number.

structure_string	inhibition (%)
COc1ccc(NC(=O)/C=C/c2ccccc2Cl)cc1OCCN1CCC(N2CCN(C)CC2)CC1	0.87
c1ccc2c(C3CCN(CCCCOc4ccc5c(c4)CCN(CC4CC4)CC5)CC3)c[nH]c2c1	6.07
Nc1nc(Nc2cccc(Cl)c2)ncc1C(=O)NCc1ccncc1	8.62

Query: For the compound CCCCCCCC/C=C\CCCCCCCC(=O)NCc1ccc(O)c(OC)c1 , report inhibition.
Result: 5.67

====

target_or_system: Hexose transporter 1 (Plasmodium falciparum)
procedure_summary: ST_JUDE_LEISH: Cytotoxicity at 2uM final concentration against transgenic Leishmania Mexicana promastigotes LmPfHT that are glucose transport deficient and complemented with the Plasmodium falciparum hexose transporter. Activity is measured by DNA content using SYBR green in vitro
Format: functional
test_readout: inhibition (%)
Write the value in % as a bare number.

Before answering, review these 3 worked examples.
compound	inhibition / %
CC1CNC(c2ccc(NC(=O)Nc3ccc(C4=NC(C)CN4)cc3)cc2)=N1 (configuration not stated)	5.64
CCCCNc1c(C(=O)OCC)c(C)nc2c1[nH]c1ccccc12	4.14
COc1ccc(C(=O)CCC(=O)N(CCC2CCCN2C)Cc2ccc(-c3ccc(CNCCc4ccc(S(C)(=O)=O)cc4)cn3)cc2)cc1F (configuration not stated)	9.98

Query: Give inhibition for this entry on Hexose transporter 1 (Plasmodium falciparum): O=C(N/C=N/c1cc([N+](=O)[O-])c(-c2ccncc2)n1-c1ccccc1)c1cccc(O)c1
Result: 0.41

Query: Give inhibition for this entry on Hexose transporter 1 (Plasmodium falciparum): O=[N+]([O-])c1cc(/C=N/Nc2nc3ccccc3[nH]2)ccc1O
Result: 8.49

====

target_or_system: Glucose transporter (Leishmania mexicana) (UniProt O61059)
procedure_summary: ST_JUDE_LEISH: Cytotoxicity at 2uM final concentration against transgenic Leishmania Mexicana promastigotes LmGT2 that are glucose transport deficient and complemented with the L. Mexicana glucose transporter 2. Activity is measured by DNA content using SYBR green in vitro
Assay type: functional
test_readout: inhibition (%)
Write the value in % as a bare number.

compound	value_measured
CCc1cn2c3c(cc(C(=O)N[C@@H](Cc4cccc(F)c4)[C@H](O)CNC4CCCCC4)cc13)N(C)S(=O)(=O)CC2	-0.81

Now look at this entry.
Query: Give inhibition for this entry on Glucose transporter (Leishmania mexicana) (UniProt O61059): COc1ccc(CNCC2CCC(CNCCc3ccccc3)CC2)cc1Cl (configuration not stated)
Result: 2.3

====

target_or_system: Glucose transporter (Leishmania mexicana) (UniProt O61059)
procedure_summary: ST_JUDE_LEISH: Cytotoxicity at 2uM final concentration against transgenic Leishmania Mexicana promastigotes LmGT2 that are glucose transport deficient and complemented with the L. Mexicana glucose transporter 2. Activity is measured by DNA content using SYBR green in vitro
Format: functional
Each entry below lists one item and its recorded inhibition value.
Write the value in % as a bare number.

Query: For the molecule Cc1cc(Cl)ccc1NC(=O)Nc1ccc2nccc(N3CCN(C)CC3)c2c1 , report inhibition.
Result: 5.6

Query: For the molecule CC1(C)N=C(N)N=C(N)N1OCc1cc2ccccc2cc1CON1C(N)=NC(N)=NC1(C)C , report inhibition.
Result: 0.5

Query: For the molecule Cc1cc(C)cc(N2C(N)=NC(N)=NC2(C)C)c1 , report inhibition.
Result: 5.97

Query: For the molecule CC(C)n1c(CC2CCN(CC3CCN(C(=O)/C=C/c4ccc(Cl)c(Cl)c4)CC3)CC2)nc2ccccc21 , report inhibition.
Result: -2.53

====

target_or_system: Solute carrier family 2, facilitated glucose transporter member 1 (Homo sapiens) (UniProt P11166)
Sequence (P11166 whole entry): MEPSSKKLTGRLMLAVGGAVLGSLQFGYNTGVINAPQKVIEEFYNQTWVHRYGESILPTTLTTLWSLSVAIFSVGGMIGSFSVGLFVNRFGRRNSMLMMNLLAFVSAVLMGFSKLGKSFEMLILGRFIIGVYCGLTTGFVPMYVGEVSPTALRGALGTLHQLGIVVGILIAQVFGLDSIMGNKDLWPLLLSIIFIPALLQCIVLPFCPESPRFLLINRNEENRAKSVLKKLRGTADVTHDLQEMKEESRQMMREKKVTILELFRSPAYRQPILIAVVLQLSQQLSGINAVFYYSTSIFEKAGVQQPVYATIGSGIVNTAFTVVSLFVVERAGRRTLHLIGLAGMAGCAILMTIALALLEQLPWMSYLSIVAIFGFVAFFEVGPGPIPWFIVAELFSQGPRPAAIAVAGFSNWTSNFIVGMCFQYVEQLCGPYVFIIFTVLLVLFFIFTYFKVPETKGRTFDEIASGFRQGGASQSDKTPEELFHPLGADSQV
procedure_summary: ST_JUDE_LEISH: Cytotoxicity at 2uM final concentration against transgenic Leishmania Mexicana promastigotes LmGLUT1 that are glucose transport deficient and complemented with the human glucose transporter GLUT1. Activity is measured by DNA content using SYBR green in vitro
Type: functional
test_readout: inhibition (%)
Write the value in % as a bare number.

Before answering, review these 5 worked examples.
compound	unit_of_measurement	inhibition
Cc1nc(Cl)c2c(-c3ccccc3)csc2n1	%	0.55
Nc1nonc1-c1nc2c(-c3cccc(Cl)c3)nccc2n1CCCNC(=O)Cc1ccc(Cl)cc1	%	0.7
CC1CN(c2ccc3occ(C(=O)Nc4ccc(-c5ccncc5)c(Cl)c4)c3c2)CC(C)N1C (stereo unspecified)	%	5.54
O=C(NCc1ccccc1)OC1CNCCC1c1ccc(C(O)Cc2ccccc2)cc1 (stereo unspecified)	%	1.68
FC(F)(F)c1ccc2[nH]c(-c3ccc(-c4ccc(CNCc5cnn(-c6ccccc6)n5)cc4)cc3)nc2c1	%	2.68

Now look at this entry.
Query: For the compound O=C(NCCCNc1nc2ccccc2[nH]1)c1cccc(OC(F)(F)F)c1 , report inhibition.
Result: 2.27

====

target_or_system: Hexose transporter 1 (Plasmodium falciparum)
procedure_summary: ST_JUDE_LEISH: Cytotoxicity at 2uM final concentration against transgenic Leishmania Mexicana promastigotes LmPfHT that are glucose transport deficient and complemented with the Plasmodium falciparum hexose transporter. Activity is measured by DNA content using SYBR green in vitro
Format: functional
Answer no (0) if inhibition is under 0.7%, and yes (1) if it is 0.7% or more.

structure_string	classification
O=C(Nc1ccc(CN2CCCCC2)cc1)c1ccc(COc2ccc([N+](=O)[O-])cc2)o1	yes (1)
CN1CCC(N2CCN(C(=O)c3cccc(-c4cccc(-c5nc6ccccc6[nH]5)c4)c3)CC2)CC1	yes (1)
Cc1cccc2nc(-c3ccc(-c4cccc(NC(=O)Nc5ccsc5)c4)cc3)[nH]c12	no (0)

Field: next compound
Query: Dear colleague, could you confirm whether CS(=O)(=O)c1ccc(CCNCc2ccc(-c3ccc(CN(C(=O)c4ccco4)C4CCN(Cc5ccccc5)CC4)cc3)nc2)cc1 has inhibition at or above 0.7%?
Result: no (0)

====

target_or_system: Hexose transporter 1 (Plasmodium falciparum) (UniProt O97467)
procedure_summary: ST_JUDE_LEISH: Cytotoxicity at 2uM final concentration against transgenic Leishmania Mexicana promastigotes LmPfHT that are glucose transport deficient and complemented with the Plasmodium falciparum hexose transporter. Activity is measured by DNA content using SYBR green in vitro
Assay type: functional
Each entry below lists one item and its recorded inhibition value.
Write the value in % as a bare number.

Before answering, review these 5 worked examples.
compound	unit_of_measurement	inhibition
CCNc1cc(C(=O)N[C@@H](Cc2ccccc2)[C@H](O)CNC23CCC(CC2)CC3)cc(N2CCCCS2(=O)=O)c1	%	0.04
CCCN(CCC)CCCOc1ccc(C(=O)c2c(-c3ccc(OCCCN(CCC)CCC)cc3)oc3ccc(Cl)cc23)cc1	%	49.3
CN1CCC(NCc2cccc(-c3cccc(-c4nc5cc(C(F)(F)F)ccc5[nH]4)c3)c2)CC1	%	0.79
CCCCn1c(Sc2ccc(C#N)c([N+](=O)[O-])c2)nnc1-c1cc(OC)cc(OC)c1	%	3.21
C=CCc1cccc(CN2CCC(c3cc(O)nc(-c4ccccn4)n3)CC2)c1O	%	10.4

Query: For the compound CC(C)C[C@H](NC(=O)c1cc2ccccc2s1)C(=O)N[C@H]1CCN(Cc2ccc(I)c(OC3CCN(C)C3)c2)C1 (stereo partly specified) , report inhibition.
Result: 1.35

Query: For the compound Cc1cccc2nc(-c3cccc(-c4ccc(NC(=O)Nc5ccc(Cl)cc5)cc4)c3)[nH]c12 , report inhibition.
Result: 5.13

Query: For the compound CC(C)(C)c1ccc(C(=O)N2CCC3(CC2)C(=O)N(CC(=O)NCC2CCCO2)CN3c2ccccc2)cc1 (stereo unspecified) , report inhibition.
Result: 4.61

Query: For the compound CCc1cc(I)c2c(c1)C(NCCCNc1cc(=O)c3ccccc3[nH]1)CCN2 (stereo unspecified) , report inhibition.
Result: 4.39

Query: For the compound COc1cccc(OC2CCN(C(=O)c3cc(C(C)(C)C)nn3Cc3ccccc3)CC2)c1 , report inhibition.
Result: 0.53

Query: For the compound CNCCNCc1ccc(-c2ccc(-c3nc4cc(F)ccc4[nH]3)cc2)cc1 , report inhibition.
Result: 0.64
